Attribution: ChEMBL document CHEMBL1138832

molecular target: Cyclin-dependent kinase 2/cyclin A (Homo sapiens); assay: Inhibition of Cyclin-dependent kinase 2-Cyclin A3 at 100 uM; assay type: protein-complex assay
readoutType: IC50 (µM)
Value expressed in µM; do not type the unit.

// query Identify measured IC50 corresponding to COc1ccc(Oc2nc(OCC3CCCCC3)c3[nH]cnc3n2)cc1
// result 42

----------
molecular target: Cyclin-dependent kinase 1/cyclin B (Homo sapiens); experiment: Inhibitory activity against cyclin-dependent kinase 1-cyclin B.
pIC50: −log10 of the molar value.
Tick 1 if pIC50 is 6 or greater. Tick -1 if pIC50 is less than 6.

Study these solved cases before continuing.
>>> labelclass("CN(C)C(=O)c1ccc(Nc2nc(OCC3CCCCC3)c3[nH]cnc3n2)cc1")
1
>>> labelclass("CNC(=O)c1ccc(Nc2nc(OCC3CCCCC3)c3nc[nH]c3n2)cc1")
1
>>> labelclass("COc1cccc(Nc2nc(OCC3CCCCC3)c3[nH]cnc3n2)c1")
-1

// query Threshold query (pIC50 >= 6) on c1ccc(Nc2nc(OCC3CCCCC3)c3nc[nH]c3n2)cc1
// result -1

// query Given Brc1cccc(Nc2nc(OCC3CCCCC3)c3[nH]cnc3n2)c1 , state whether its pIC50 is at least 6.
// result -1

// query Does the reported pIC50 for C[S+]([O-])c1ccc(Nc2nc(OCC3CCCCC3)c3[nH]cnc3n2)cc1 (stereo not drawn) fall at or above the 6 mark?
// result 1

// query Check the entry OCCNc1nc(OCC2CCCCC2)c2[nH]cnc2n1 : does pIC50 equal or exceed 6?
// result -1

// query Would you say NS(=O)(=O)c1ccc(NNc2nc(OCC3CCCCC3)c3[nH]cnc3n2)cc1 shows pIC50 at minimum 6?
// result -1

----------
target: Cyclin-dependent kinase 1/cyclin B (Homo sapiens, UniProt P06493); test: Inhibitory activity against cyclin-dependent kinase 1-cyclin B.
Measured IC50 accompanies every entry in the list below.
# output: bare number, implied unit nM

Example cases with answers are listed next.
>>> resultnumber("CC(C)Nc1nc(OCC2CCCCC2)c2[nH]cnc2n1")
2000
>>> resultnumber("COc1cc(Nc2nc(OCC3CCCCC3)c3[nH]cnc3n2)ccc1S(N)(=O)=O")
103

# evaluate next
// query State its IC50: NS(=O)(=O)c1ccc(CNc2nc(OCC3CCCCC3)c3[nH]cnc3n2)s1
// result 5700

----------
target: Cyclin-dependent kinase 1/cyclin B (starfish); experiment: Inhibition of Cyclin-dependent kinase 1-cyclin B at 100 uM
readoutType: IC50 (µM)
All answers are understood in µM, so give the number only.

// query System Cyclin-dependent kinase 1/cyclin B (starfish). Read-out IC50. Item COc1ccc(Oc2nc(OCC3CCCCC3)c3[nH]cnc3n2)cc1 . Report value.
// result 10

----------
Listed next: entries and their corresponding inhibition.
test system: Cyclin-dependent kinase 1/cyclin B (starfish); assay: Inhibition of Cyclin-dependent kinase 1-cyclin B at 10 uM; conditions: Asteroidea
Reply numerically in %, unit not repeated.

Reference set, count: 2
>>> resultnumber("CC(C)[C@H](CO)Nc1nc(OCC2CCCCC2)c2[nH]cnc2n1")
2
>>> resultnumber("Fc1ccc(Nc2nc(OCC3CCCCC3)c3[nH]cnc3n2)cc1Cl")
73

// query Note inhibition for the compound shown: CN(C)c1nc(OCC2CCCCC2)c2[nH]cnc2n1
// result 27

// query Using the record for CC(C)[C@@H](CO)Nc1nc(OCC2CCCCC2)c2[nH]cnc2n1 , state its measured inhibition.
// result 1

----------
target: Cyclin-dependent kinase 1/cyclin B (starfish); assay: Inhibition of Cyclin-dependent kinase 1-cyclin B at 10 uM
readoutType: pIC50
Scale explanation: pIC50 corresponds to minus log10 of a concentration expressed in moles per litre.

// query For the molecule COC(=O)c1ccc(Nc2nc(OCC3CCCCC3)c3nc[nH]c3n2)cc1 , give its measured pIC50 value.
// result 4.18

----------
target: Cyclin-dependent kinase 2/cyclin A (Homo sapiens); experiment: Inhibition of cyclin-dependent kinase 2-cyclin A3 (CDK2); assay type: protein-complex assay
pIC50: −log10 of the molar value.
Quick rule for you: pIC50 at 6 or higher means criterion met, lower means criterion not met.

>>> labelclass("OCCNc1nc(OCC2CCCCC2)c2[nH]cnc2n1")
"criterion not met"
>>> labelclass("CNC(=O)c1ccc(Nc2nc(OCC3CCCCC3)c3nc[nH]c3n2)cc1")
"criterion met"
>>> labelclass("NS(=O)(=O)c1ccc(CNc2nc(OCC3CCCCC3)c3[nH]cnc3n2)s1")
"criterion not met"
>>> labelclass("NS(=O)(=O)c1ccc(NNc2nc(OCC3CCCCC3)c3[nH]cnc3n2)cc1")
"criterion not met"
>>> labelclass("Clc1cc(Cl)cc(Nc2nc(OCC3CCCCC3)c3[nH]cnc3n2)c1")
"criterion not met"

// query Check if pIC50 >= 6 (inclusive). Item: CNc1nc(OCC2CCCCC2)c2[nH]cnc2n1
// result criterion not met

// query Can c1csc(CNc2nc(OCC3CCCCC3)c3[nH]cnc3n2)c1 be said to have pIC50 at or above 6?
// result criterion not met

// query Has CCNc1nc(OCC2CCCCC2)c2[nH]cnc2n1 a recorded pIC50 greater than or equal to 6?
// result criterion not met

// query Please indicate if the recorded pIC50 for CCc1cccc(Nc2nc(OCC3CCCCC3)c3[nH]cnc3n2)c1 meets or exceeds 6.
// result criterion not met

// query Evaluate NC(=O)Cc1ccc(Nc2nc(OCC3CCCCC3)c3nc[nH]c3n2)cc1 : pIC50 at minimum 6?
// result criterion met

----------
// inhibition lookup, one value per entry
biological target: Cyclin-dependent kinase 2/cyclin A (Homo sapiens) (UniProt P24941+P20248+P78396); assay: Inhibition of Cyclin-dependent kinase 2-Cyclin A3 at 10 uM; assay type: protein-complex assay
Answer in %, number only, no unit symbol.

Solved entries (count: 5):
>>> resultnumber("CN(C)c1nc(OCC2CCCCC2)c2[nH]cnc2n1")
31
>>> resultnumber("CC(C)[C@@H](CO)Nc1nc(OCC2CCCCC2)c2[nH]cnc2n1")
19
>>> resultnumber("Fc1cccc(Nc2nc(OCC3CCCCC3)c3[nH]cnc3n2)c1")
62
>>> resultnumber("Fc1ccc(Nc2nc(OCC3CCCCC3)c3[nH]cnc3n2)cc1Cl")
68
>>> resultnumber("Fc1nc(OCC2CCCCC2)c2[nH]cnc2n1")
4

// query Param request: inhibition | system Cyclin-dependent kinase 2/cyclin A (Homo sapiens) (UniProt P24941+P20248+P78396) | item Clc1nc(OCC2CCCCC2)c2[nH]cnc2n1
// result 5

// query Specify the recorded inhibition for Fc1ccc(Nc2nc(OCC3CCCCC3)c3[nH]cnc3n2)cc1 , system: Cyclin-dependent kinase 2/cyclin A (Homo sapiens) (UniProt P24941+P20248+P78396).
// result 27

// query Param request: inhibition | system Cyclin-dependent kinase 2/cyclin A (Homo sapiens) (UniProt P24941+P20248+P78396) | item CSc1ccc(Nc2nc(OCC3CCCCC3)c3[nH]cnc3n2)cc1
// result 18

// query Write down measured inhibition (Cyclin-dependent kinase 2/cyclin A (Homo sapiens) (UniProt P24941+P20248+P78396)) for this molecule. CC[C@H](CO)Nc1nc(OCC2CCCCC2)c2[nH]cnc2n1
// result 62

// query Given CC[C@@H](CO)Nc1nc(OCC2CCCCC2)c2[nH]cnc2n1 , report its inhibition on Cyclin-dependent kinase 2/cyclin A (Homo sapiens) (UniProt P24941+P20248+P78396).
// result 52

// query Look up and report measured inhibition (Cyclin-dependent kinase 2/cyclin A (Homo sapiens) (UniProt P24941+P20248+P78396)) for the following molecule: CCc1cccc(Nc2nc(OCC3CCCCC3)c3[nH]cnc3n2)c1
// result 37

----------
molecular target: Cyclin-dependent kinase 2/cyclin A (Homo sapiens); assay: Inhibition of Cyclin-dependent kinase 2-Cyclin A3 at 10 uM; format: protein-complex assay
readoutType: IC50 (µM)
Dear colleague, please return just the value in µM, with no unit written.

// query For Cyclin-dependent kinase 2/cyclin A (Homo sapiens), give the measured IC50 of the entry COC(=O)c1ccc(Nc2nc(OCC3CCCCC3)c3nc[nH]c3n2)cc1
// result 25

----------
biological target: Cyclin-dependent kinase 1/cyclin B (Homo sapiens, UniProt P06493); assay: Inhibitory activity against cyclin-dependent kinase 1-cyclin B.; assay type: protein-complex assay
readoutType: log10 of IC50 (log10 of the value in nM)
Short version: log10 scale, IC50, nM.

See these solved cases before continuing.
>>> resultnumber("O=C(O)c1ccc(Nc2nc(OCC3CCCCC3)c3nc[nH]c3n2)cc1")
3.00
>>> resultnumber("c1csc(CNc2nc(OCC3CCCCC3)c3[nH]cnc3n2)c1")
2.85
>>> resultnumber("CN(C)S(=O)(=O)c1ccc(Nc2nc(OCC3CCCCC3)c3nc[nH]c3n2)cc1")
1.89
>>> resultnumber("CC(=O)c1ccc(Nc2nc(OCC3CCCCC3)c3[nH]cnc3n2)cc1")
2.70
>>> resultnumber("NC(=O)Cc1ccc(Nc2nc(OCC3CCCCC3)c3nc[nH]c3n2)cc1")
2.15
>>> resultnumber("OCc1cccc(Nc2nc(OCC3CCCCC3)c3[nH]cnc3n2)c1")
2.48
>>> resultnumber("N#CCc1ccc(Nc2nc(OCC3CCCCC3)c3[nH]cnc3n2)cc1")
2.48
>>> resultnumber("CCc1cccc(Nc2nc(OCC3CCCCC3)c3[nH]cnc3n2)c1")
4.57

// query For Cyclin-dependent kinase 1/cyclin B (Homo sapiens, UniProt P06493), give the measured log10 of IC50 of the entry CCNc1nc(OCC2CCCCC2)c2[nH]cnc2n1
// result 3.52

// query Lab note: record log10 of IC50 of COc1ccc(Nc2nc(OCC3CCCCC3)c3[nH]cnc3n2)cc1 tested on Cyclin-dependent kinase 1/cyclin B (Homo sapiens, UniProt P06493).
// result 2.90

// query System Cyclin-dependent kinase 1/cyclin B (Homo sapiens, UniProt P06493). Read-out log10 of IC50. Item Clc1cc(Cl)cc(Nc2nc(OCC3CCCCC3)c3[nH]cnc3n2)c1 . Report value.
// result 4.11

// query Report value: log10 of IC50, system: Cyclin-dependent kinase 1/cyclin B (Homo sapiens, UniProt P06493), compound: NS(=O)(=O)c1cccc(Nc2nc(OCC3CCCCC3)c3nc[nH]c3n2)c1
// result 2.38

// query Recall the reported log10 of IC50 of CNc1nc(OCC2CCCCC2)c2[nH]cnc2n1 when tested on Cyclin-dependent kinase 1/cyclin B (Homo sapiens, UniProt P06493).
// result 3.72

// query Please look at CNS(=O)(=O)c1ccc(Nc2nc(OCC3CCCCC3)c3nc[nH]c3n2)cc1 and tell me its recorded log10 of IC50 on Cyclin-dependent kinase 1/cyclin B (Homo sapiens, UniProt P06493).
// result 0.95

// query Enter log10 of IC50 (test system Cyclin-dependent kinase 1/cyclin B (Homo sapiens, UniProt P06493)) for CSc1cccc(Nc2nc(OCC3CCCCC3)c3nc[nH]c3n2)c1
// result 3.38
